Data credit: ChEMBL document CHEMBL1667821

- measured on: Galectin-2 (Homo sapiens)
- assay comment: Binding affinity to human galectin-2 by surface plasmon resonance method
This section presents compounds with their documented Activity values.

compound: OC[C@H]1OC(O[C@H]2[C@H](O)[C@@H](O)[C@H](OCCCCCCCCCCCCS)O[C@@H]2CO)[C@H](O)[C@@H](O)[C@H]1O (stereo not given in full)
Activity: 2 a.u.
//
compound: OC[C@H]1O[C@@H](OCCCCCCCCCCCCS)[C@H](O)[C@@H](O)[C@H]1O
Activity: 3.8 a.u.
//
compound: OC[C@H]1O[C@@H](O[C@H]2[C@H](O)C[C@@H](OCCCCCCCCCCCCS)O[C@@H]2CO)[C@H](O)[C@@H](O)[C@H]1O
Activity: 11 a.u.

Turning now to a further record.
Problem: Requested read-out Activity, target or system Galectin-2 (Homo sapiens), entry OC[C@H]1O[C@@H](O[C@H]2C=C[C@@H](OCCCCCCCCCCCCS)O[C@@H]2CO)[C@H](O)[C@@H](O)[C@H]1O
Result: 13.4 a.u.
